- Test system: HCT-116 cell line
- assay_explanation: Inhibition of cell growth, MTT tetrazolium salt assay
- Type: cell-based
- cond: HCT-116 cells, 0.1 μM compound
Listed here: items and their measured HCT-116 % Inhibition at 0.1 μM.

compound: CC1CCCCN1CCCNC(=O)c1ccc(Nc2nc(N)c(C(=O)c3c(F)cccc3F)s2)cc1 (centres unmarked)
target_of_assay: HCT-116 cell line
HCT-116 % Inhibition at 0.1 μM (%): 18

compound: Nc1nc(Nc2ccc(C(=O)NCc3ccco3)cc2)sc1C(=O)c1c(F)cccc1F
target_of_assay: HCT-116 cell line
HCT-116 % Inhibition at 0.1 μM (%): 37

compound: Nc1nc(Nc2ccc(C(=O)NCCc3ccc(Cl)cc3)cc2)sc1C(=O)c1c(F)cccc1F
target_of_assay: HCT-116 cell line
HCT-116 % Inhibition at 0.1 μM (%): 28

compound: COc1cccc(CNC(=O)c2ccc(Nc3nc(N)c(C(=O)c4c(F)cccc4F)s3)cc2)c1OC
target_of_assay: HCT-116 cell line
HCT-116 % Inhibition at 0.1 μM (%): 21

compound: Nc1nc(Nc2ccc(C(=O)Nc3ccccc3CCO)cc2)sc1C(=O)c1c(F)cccc1F
target_of_assay: HCT-116 cell line
HCT-116 % Inhibition at 0.1 μM (%): 15

compound: CC(CCCC(C)(C)O)NC(=O)c1ccc(Nc2nc(N)c(C(=O)c3c(F)cccc3F)s2)cc1 (centres unmarked)
target_of_assay: HCT-116 cell line
HCT-116 % Inhibition at 0.1 μM (%): 20

compound: CCN(C)C(=O)c1ccc(Nc2nc(N)c(C(=O)c3c(F)cccc3F)s2)cc1
target_of_assay: HCT-116 cell line
HCT-116 % Inhibition at 0.1 μM (%): 2

compound: CCN(CC)CCN(C)C(=O)c1ccc(Nc2nc(N)c(C(=O)c3c(F)cccc3F)s2)cc1
target_of_assay: HCT-116 cell line
HCT-116 % Inhibition at 0.1 μM (%): 0

---

- target_of_assay: CDK2/cyclin A (Homo sapiens)
- Construct: made in house; host or cells: CDK2: insect cells (baculovirus); cyclin A: E. coli
- assay_explanation: Inhibition of CDK2/cyclin A retinoblastoma kinase activity (Ki; % inhibition)
- Format: biochemical
- cond: at 0.03 μM
Listed here: items and their measured CDK2 % Inhibition at 0.03 μM.
measured_endpoint: CDK2 % Inhibition at 0.03 μM (%)

smiles_notation: C=C(C)CN(C)C(=O)c1ccc(Nc2nc(N)c(C(=O)c3c(F)cccc3F)s2)cc1
target_of_assay: CDK2/cyclin A (Homo sapiens)
unit_string: %
recorded_result: −2
//
smiles_notation: CN(C(=O)c1ccc(Nc2nc(N)c(C(=O)c3c(F)cccc3F)s2)cc1)C1CCCCC1
target_of_assay: CDK2/cyclin A (Homo sapiens)
unit_string: %
recorded_result: −2
//
smiles_notation: CN(CCc1ccncc1)C(=O)c1ccc(Nc2nc(N)c(C(=O)c3c(F)cccc3F)s2)cc1
target_of_assay: CDK2/cyclin A (Homo sapiens)
unit_string: %
recorded_result: 19
//
smiles_notation: COC(=O)CN(C)C(=O)c1ccc(Nc2nc(N)c(C(=O)c3c(F)cccc3F)s2)cc1
target_of_assay: CDK2/cyclin A (Homo sapiens)
unit_string: %
recorded_result: 9

---

- target_of_assay: human CDK4/cyclin D3 (Homo sapiens, UniProt P11802)
- Construct: made in house; host or cells: insect cells co-infected with baculovirus vectors
- Sequence (P11802 whole entry): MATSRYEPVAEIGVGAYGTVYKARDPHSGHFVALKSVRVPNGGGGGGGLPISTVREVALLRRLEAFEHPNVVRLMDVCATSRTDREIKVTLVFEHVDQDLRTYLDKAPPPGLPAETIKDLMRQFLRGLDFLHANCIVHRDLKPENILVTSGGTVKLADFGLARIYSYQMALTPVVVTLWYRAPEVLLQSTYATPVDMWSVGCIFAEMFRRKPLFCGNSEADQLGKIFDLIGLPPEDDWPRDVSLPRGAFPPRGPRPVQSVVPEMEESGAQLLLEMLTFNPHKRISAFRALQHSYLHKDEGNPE
- Sequence (P30281 1-264 partner limits assumed): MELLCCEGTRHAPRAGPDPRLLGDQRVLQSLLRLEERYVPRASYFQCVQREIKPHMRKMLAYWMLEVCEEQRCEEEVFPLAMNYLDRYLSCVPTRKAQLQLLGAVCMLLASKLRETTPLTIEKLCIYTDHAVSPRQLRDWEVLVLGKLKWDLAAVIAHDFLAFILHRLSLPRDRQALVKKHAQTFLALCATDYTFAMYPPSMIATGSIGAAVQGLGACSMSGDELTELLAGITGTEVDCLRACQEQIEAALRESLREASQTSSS
- assay_explanation: Inhibition of CDK4/cyclin D retinoblastoma kinase activity (Ki; % inhibition)
- Assay type: biochemical
- cond: at 0.03 μM
measured_endpoint: CDK4 % Inhibition at 0.03 μM (%)

compound: CN(C)C1CCN(C(=O)c2ccc(Nc3nc(N)c(C(=O)c4c(F)cccc4F)s3)cc2)C1 (stereo not shown) [Example G29]
measured_endpoint: CDK4 % Inhibition at 0.03 μM
unit_string: %
recorded_result: 32

compound: Cc1cc(NC(=O)c2ccc(Nc3nc(N)c(C(=O)c4c(F)cccc4F)s3)cc2)ccc1Cl
measured_endpoint: CDK4 % Inhibition at 0.03 μM
unit_string: %
recorded_result: 7

compound: CCCCN(CC#N)C(=O)c1ccc(Nc2nc(N)c(C(=O)c3c(F)cccc3F)s2)cc1
measured_endpoint: CDK4 % Inhibition at 0.03 μM
unit_string: %
recorded_result: 2

compound: CCCOCCNC(=O)c1ccc(Nc2nc(N)c(C(=O)c3c(F)cccc3F)s2)cc1
measured_endpoint: CDK4 % Inhibition at 0.03 μM
unit_string: %
recorded_result: 22

compound: COC(=O)c1ccccc1NC(=O)c1ccc(Nc2nc(N)c(C(=O)c3c(F)cccc3F)s2)cc1
measured_endpoint: CDK4 % Inhibition at 0.03 μM
unit_string: %
recorded_result: −1

compound: CCCCNC(=O)c1ccc(Nc2nc(N)c(C(=O)c3c(F)cccc3F)s2)cc1
measured_endpoint: CDK4 % Inhibition at 0.03 μM
unit_string: %
recorded_result: 30

compound: Cc1ccc(NC(=O)c2ccc(Nc3nc(N)c(C(=O)c4c(F)cccc4F)s3)cc2)cc1Cl
measured_endpoint: CDK4 % Inhibition at 0.03 μM
unit_string: %
recorded_result: −5

compound: CC1CC(NC(=O)c2ccc(Nc3nc(N)c(C(=O)c4c(F)cccc4F)s3)cc2)CC(C)(C)C1 (stereo not shown)
measured_endpoint: CDK4 % Inhibition at 0.03 μM
unit_string: %
recorded_result: 13

compound: CCN(Cc1ccncc1)C(=O)c1ccc(Nc2nc(N)c(C(=O)c3c(F)cccc3F)s2)cc1
measured_endpoint: CDK4 % Inhibition at 0.03 μM
unit_string: %
recorded_result: 19

compound: COC(CN(C)C(=O)c1ccc(Nc2nc(N)c(C(=O)c3c(F)cccc3F)s2)cc1)OC
measured_endpoint: CDK4 % Inhibition at 0.03 μM
unit_string: %
recorded_result: 4

compound: CCN1CCN(C(=O)c2ccc(Nc3nc(N)c(C(=O)c4c(F)cccc4F)s3)cc2)CC1
measured_endpoint: CDK4 % Inhibition at 0.03 μM
unit_string: %
recorded_result: 19

compound: CN(C)CCCCNC(=O)c1ccc(Nc2nc(N)c(C(=O)c3c(F)cccc3F)s2)cc1
measured_endpoint: CDK4 % Inhibition at 0.03 μM
unit_string: %
recorded_result: 11

compound: Nc1nc(Nc2ccc(C(=O)NC(CO)c3ccccc3)cc2)sc1C(=O)c1c(F)cccc1F (stereo not shown) [Example G160]
measured_endpoint: CDK4 % Inhibition at 0.03 μM
unit_string: %
recorded_result: 6

compound: Nc1nc(Nc2ccc(C(=O)Nc3ccccc3N3CCOCC3)cc2)sc1C(=O)c1c(F)cccc1F
measured_endpoint: CDK4 % Inhibition at 0.03 μM
unit_string: %
recorded_result: 7

compound: CCC(CO)NC(=O)c1ccc(Nc2nc(N)c(C(=O)c3c(F)cccc3F)s2)cc1 (stereo not shown) [Example G156]
measured_endpoint: CDK4 % Inhibition at 0.03 μM
unit_string: %
recorded_result: 24

compound: CC(CNC(=O)c1ccc(Nc2nc(N)c(C(=O)c3c(F)cccc3F)s2)cc1)c1ccccc1 (stereo not shown)
measured_endpoint: CDK4 % Inhibition at 0.03 μM
unit_string: %
recorded_result: 21

---

- Tested on: HCT-116 cell line
- assay_explanation: Inhibition of cell growth, MTT tetrazolium salt assay
- Type: cell-based
- cond: HCT-116, at 0.1 μM
Consider the cut-off 20%. If the recorded HCT-116 % Inhibition at 0.1 μM is strictly smaller, the label is met; if not, the label is not met.

molecule: COCCCNC(=O)c1ccc(Nc2nc(N)c(C(=O)c3c(F)cccc3F)s2)cc1
target_of_assay: HCT-116 cell line
class: not met
--
molecule: COc1ccccc1CCNC(=O)c1ccc(Nc2nc(N)c(C(=O)c3c(F)cccc3F)s2)cc1
target_of_assay: HCT-116 cell line
class: met
--
molecule: Cc1cc(NC(=O)c2ccc(Nc3nc(N)c(C(=O)c4c(F)cccc4F)s3)cc2)ccc1C(C)C
target_of_assay: HCT-116 cell line
class: met
--
molecule: COc1cc(NC(=O)c2ccc(Nc3nc(N)c(C(=O)c4c(F)cccc4F)s3)cc2)ccc1C
target_of_assay: HCT-116 cell line
class: met
--
molecule: CN(CC(O)CO)C(=O)c1ccc(Nc2nc(N)c(C(=O)c3c(F)cccc3F)s2)cc1 (centres unmarked)
target_of_assay: HCT-116 cell line
class: not met
--
molecule: CCC(C)NC(=O)c1ccc(Nc2nc(N)c(C(=O)c3c(F)cccc3F)s2)cc1 (centres unmarked)
target_of_assay: HCT-116 cell line
class: met
--
molecule: CCCCC(CC)NC(=O)c1ccc(Nc2nc(N)c(C(=O)c3c(F)cccc3F)s2)cc1 (centres unmarked)
target_of_assay: HCT-116 cell line
class: not met
--
molecule: Nc1nc(Nc2ccc(C(=O)NCCCN3CCOCC3)cc2)sc1C(=O)c1c(F)cccc1F
target_of_assay: HCT-116 cell line
class: met

---

- Test system: HCT-116 cell line
- assay_explanation: Inhibition of cell growth, MTT tetrazolium salt assay
- Format: cell-based
- cond: HCT-116 cells, 0.1 μM compound
Listed here: items and their measured HCT-116 % Inhibition at 0.1 μM.

molecule: CCN(CC)C(=O)c1ccc(Nc2nc(N)c(C(=O)c3c(F)cccc3F)s2)cc1
HCT-116 % Inhibition at 0.1 μM: 9%
//
molecule: CCN(CC)CCCN(C)C(=O)c1ccc(Nc2nc(N)c(C(=O)c3c(F)cccc3F)s2)cc1
HCT-116 % Inhibition at 0.1 μM: 30%
//
molecule: Nc1nc(Nc2ccc(C(=O)Nc3ccc(Cl)cc3CO)cc2)sc1C(=O)c1c(F)cccc1F
HCT-116 % Inhibition at 0.1 μM: 23%
//
molecule: C=CCN(C(=O)c1ccc(Nc2nc(N)c(C(=O)c3c(F)cccc3F)s2)cc1)C1CCCCC1
HCT-116 % Inhibition at 0.1 μM: 12%
//
molecule: Nc1nc(Nc2ccc(C(=O)Nc3ccc(Nc4ccccc4)cc3)cc2)sc1C(=O)c1c(F)cccc1F
HCT-116 % Inhibition at 0.1 μM: 29%
//
molecule: Nc1nc(Nc2ccc(C(=O)Nc3ccc(Cl)nc3)cc2)sc1C(=O)c1c(F)cccc1F
HCT-116 % Inhibition at 0.1 μM: 6%
//
molecule: Nc1nc(Nc2ccc(C(=O)N[C@@H]3CCN(Cc4ccccc4)C3)cc2)sc1C(=O)c1c(F)cccc1F
HCT-116 % Inhibition at 0.1 μM: 34%
//
molecule: Nc1nc(Nc2ccc(C(=O)NCCc3cccc(F)c3)cc2)sc1C(=O)c1c(F)cccc1F
HCT-116 % Inhibition at 0.1 μM: 31%
//
molecule: Nc1nc(Nc2ccc(C(=O)NC[C@@H]3CCCC[C@H]3O)cc2)sc1C(=O)c1c(F)cccc1F (relative stereo)
HCT-116 % Inhibition at 0.1 μM: 24%
//
molecule: CCN(CCCCO)C(=O)c1ccc(Nc2nc(N)c(C(=O)c3c(F)cccc3F)s2)cc1
HCT-116 % Inhibition at 0.1 μM: 28%
//
molecule: CCCCOc1ccc(NC(=O)c2ccc(Nc3nc(N)c(C(=O)c4c(F)cccc4F)s3)cc2)cc1
HCT-116 % Inhibition at 0.1 μM: 12%
//
molecule: Nc1nc(Nc2ccc(C(=O)Nc3cccc(O)c3)cc2)sc1C(=O)c1c(F)cccc1F
HCT-116 % Inhibition at 0.1 μM: 27%
//
molecule: Nc1nc(Nc2ccc(C(=O)NCCc3ccc(F)cc3)cc2)sc1C(=O)c1c(F)cccc1F
HCT-116 % Inhibition at 0.1 μM: 28%
//
molecule: CCSCCNC(=O)c1ccc(Nc2nc(N)c(C(=O)c3c(F)cccc3F)s2)cc1
HCT-116 % Inhibition at 0.1 μM: 16%
//
molecule: Nc1nc(Nc2ccc(C(=O)NCc3cccc(Cl)c3Cl)cc2)sc1C(=O)c1c(F)cccc1F
HCT-116 % Inhibition at 0.1 μM: 16%
//
molecule: CCCN(C(=O)c1ccc(Nc2nc(N)c(C(=O)c3c(F)cccc3F)s2)cc1)C(C)CC (stereo not shown)
HCT-116 % Inhibition at 0.1 μM: 27%
